FYI, the data here is from patent US20240239802A1.

- measurement protocol: Pharmacokinetics (oral administration) in CD-1 mice
- Type: in vivo
- condition details: mouse, plasma, 3.1 mg/kg, CD-1 male mice
readout kind: AUC(0-inf) (µM·h)
Express the result in µM·h but write the number alone.

The recorded AUC(0-inf) for O=C(c1ccc(Oc2ccccc2)cc1Cl)c1c[nH]c2ncnc(N[C@@H]3CC[C@@H](CO)OC3)c12 [Reference Example] is 44.1

----------
- measurement protocol: Pharmacokinetics (intravenous) in SD rats
- Assay type: in vivo
- condition details: rat, plasma, SD rats, 0.51 mg/kg (Reference Example) / 0.49 mg/kg (Compound of Formula (I))
readout kind: C0 (nM)
Express the result in nM but write the number alone.

The recorded C0 for O=C(c1ccc(Oc2ccccc2)cc1Cl)c1c[nH]c2ncnc(N[C@@H]3CC[C@@H](CO)OC3)c12 [Reference Example] is 800
